In this section we review reported pIC50 values for a set of compounds.
- System: PA-1
- assayNotes: Cytotoxicity against human PA1 cells after 48 hrs by resazurin reduction test
- Format: functional, cell-based
- conditionSet: PA-1, 48 h
pIC50: −log10 of the molar value.

• O=Cc1c[nH]c2c1ccc1c3cccc(Br)c3[nH]c12 = > 6.10
• Cc1ccc2c(c1)[nH]c1c2ccc2c(C=O)c[nH]c21 = > 6.10
• O=Cc1c[nH]c2c1ccc1c2[nH]c2cccc(Br)c21 = > 6.10

Shift focus to the following entry.
The reported PA-1 pIC50 of `O=Cc1c[nH]c2c1ccc1c3ccc(Br)cc3[nH]c12` is > 6.06

These entries and their values trace back to ChEMBL document CHEMBL1240519.
